target.entity: VHL (Homo sapiens (Human), UniProt P40337)
assay.summary: VHL fluorescence polarization (FP) competition assay
Type: binding
cond: 0.25% in DMSO
readout.name: IC50 (µM)

| smiles.input | measurement |
| --- | --- |
| CCCC(=O)N[C@H](C(=O)N1C[C@H](O)C[C@H]1C(=O)NCc1ccc(-c2scnc2C)cc1)C(C)(C)C | 3.37 |

P = Cc1ncsc1-c1ccc(CNC(=O)[C@@H]2C[C@@H](O)CN2C(=O)[C@@H](NC(=O)C2CCCCC2)C(C)(C)C)cc1
Q = Cc1ncsc1-c1ccc(CNC(=O)[C@@H]2C[C@@H](O)CN2C(=O)[C@H](C(C)C)N2Cc3cc(Br)ccc3C2=O)cc1
R = CC(C)[C@@H](C(=O)N1C[C@H](O)C[C@H]1C(=O)NCc1ccc(-c2ccccc2)cc1)N1Cc2ccccc2C1=O
Sort ascending by IC50. Thanks in advance for listing the labels in the requested order.
Q, P, R

I = CC[C@H](C)[C@H](NC(=O)CCC(C)C)C(=O)N1C[C@H](O)C[C@H]1C(=O)NCc1ccc(-c2scnc2C)cc1
II = Cc1ncsc1-c1ccc(CNC(=O)[C@@H]2C[C@@H](O)CN2C(=O)[C@H](C(C)C)N2Cc3cc(C#N)ccc3C2=O)cc1
Select the item whose IC50 value is smaller, choosing between I and II . Answer = label.
II

I = CC[C@H](C)[C@@H](C(=O)N1C[C@H](O)C[C@H]1C(=O)NCc1ccc(-c2scnc2C)cc1)N1Cc2ccccc2C1=O
II = Cc1ncsc1-c1ccc(CNC(=O)[C@@H]2C[C@@H](O)CN2C(=O)[C@@H](NC(=O)CC(C)C)C(C)(C)C)cc1
Of I versus II , which is the one with smaller reported IC50? // respond with label for picked entry
I
(I: 2.27 µM, II: 5.5 µM)

* * *

target.entity: VHL (Homo sapiens (Human), UniProt P40337)
assay.summary: VHL fluorescence polarization (FP) competition assay
Assay type: binding
cond: 10% in DMSO
readout.name: IC50 (nM)

| smiles.input | IC50 (nM) |
| --- | --- |
| C=Cc1ncsc1-c1ccc(CNC(=O)[C@@H]2C[C@@H](O)CN2C(=O)[C@H](C(C)C)N2Cc3ccccc3C2=O)cc1 | 1940 |

a = Cc1ncsc1-c1ccc(CNC(=N)[C@@H]2C[C@@H](O)CN2C(=O)[C@H](C(C)C)N2Cc3ccccc3C2=O)cc1
b = Cc1ncsc1-c1ccc(CNC(=O)[C@@H]2C[C@@H](O)CN2C(=O)[C@@H](NC(=O)c2ccccc2)C(C)(C)C)cc1
Sort a and b by IC50 descending and give the first. Please identify the chosen entry by its label.
a
(a: 112000 nM, b: 1850 nM)

* * *

target.entity: VHL (Homo sapiens (Human))
assay.summary: VHL fluorescence polarization (FP) competition assay
Type: binding
cond: 1% in DMSO
pIC50: −log10 of the molar value.
readout.name: pIC50

| molecule | pIC50 |
| --- | --- |
| Cc1ncsc1-c1ccc(CNC(=O)[C@@H]2C[C@@H](O)CN2C(=O)[C@H](C(C)C)N2Cc3ccccc3C2=O)cc1 [Example 6] | 6.16 |

a = Cc1ncsc1-c1ccc(CNC(=O)[C@@H]2C[C@@H](O)CN2C(=O)[C@H](CS)NC(=O)CCC(C)C)cc1 [Example 59]
b = CC(C)[C@@H](C(=O)N1C[C@H](O)C[C@H]1C(=O)NCc1ccc(C2=CCCC2)cc1)N1Cc2ccccc2C1=O [Example 116]
Lowest pIC50? choose a or b # answer = label of selected item
b
(b: 5.41, a: 5.85)

P = Cc1ncsc1-c1ccc(CNC(=O)[C@@H]2C[C@@H](O)CN2C(=O)[C@@H](NC(=O)C(C)C)C(C)(C)C)cc1 [Example 27]
Q = Cc1cc(C(C)(C)C(=O)N2C[C@H](O)C[C@H]2C(=O)NCc2ccc(-c3scnc3C)cc2)on1 [Example 140]
Which item exceeds the other in pIC50, P or Q ? Refer to your chosen item by its label in the answer.
P

a = CC(=O)N[C@H](C(=O)N1C[C@H](O)C[C@H]1C(=O)NCc1ccc(-c2scnc2C)cc1)C(C)C [Example 69]
b = COc1cccc(CCC(=O)N[C@H](C(=O)N2C[C@H](O)C[C@H]2C(=O)NCc2ccc(-c3scnc3C)cc2)C(C)(C)C)c1 [Example 77]
Select one. Lower pIC50: a or b Lab log: write the label of the selected item as the result.
a

P = Cc1ncsc1-c1ccc(CNC(=O)[C@@H]2C[C@@H](O)CN2c2cccc(Oc3ccccc3)c2)cc1 [Example 109]
Q = Cc1ncsc1-c1ccc(CNC(=O)[C@@H]2[C@@H](O)[C@@H](O)CN2C(=O)[C@H](C(C)C)N2Cc3ccccc3C2=O)cc1 [Example 147]
I need your help: which of the pair P , Q has higher pIC50? Return value: the label identifying the chosen record.
P
(P: 5.18, Q: 4.91)
